# Test system: OVCAR8TR cells
# Assay Summary: Reversal of drug resistance, cytotoxicity (MTT) assay in OVCAR8TR
# Type: cell-based, human
# Experimental Parameters: Homo sapiens, Doxorubicin, add NSC23925 1 μM; read-out: OVCAR8TR IC50 of Doxorubicin
pIC50: −log10 of the molar value.
Attribute Measured: pIC50

>>> result_number("COc1ccc(-c2cc(C(O)C3CCCCN3)c3ccccc3n2)cc1 (stereo not shown) [NSC23925]")
5.92

---

# Tested on: OVCAR8TR cells
# Assay Summary: Reversal of drug resistance, cytotoxicity (MTT) assay in OVCAR8TR
# Assay type: cell-based, human
# Experimental Parameters: Homo sapiens, ET-743, add NSC23925 0.5 μM; read-out: OVCAR8TR IC50 of ET-743
Attribute Measured: IC50 (nM)

>>> result_number("COc1ccc(-c2cc(C(O)C3CCCCN3)c3ccccc3n2)cc1 (stereo not shown) [NSC23925]")
5

---

# System: KHOSR2 cells
# Assay Summary: Reversal of drug resistance, cytotoxicity assay in KHOSR2
# Format: cell-based, human
# Experimental Parameters: Homo sapiens, ET-743, add NSC23925 0.5 μM; read-out: KHOSR2 IC50 of ET-743
Attribute Measured: IC50

>>> result("COc1ccc(-c2cc(C(O)C3CCCCN3)c3ccccc3n2)cc1 (stereo not shown) [NSC23925]")
"83 nM"

---

# Test system: SKOV-3TR cells
# Assay Summary: Reversal of drug resistance, cytotoxicity (MTT) assay in SKOV-3TR
# Type: cell-based
# Experimental Parameters: Homo sapiens, SKOV3TR, PM00104, add NSC23925 0.1 μM; read-out: SKOV-3TR IC50 of PM00104
Attribute Measured: IC50 (nM)

>>> result_number("COc1ccc(-c2cc(C(O)C3CCCCN3)c3ccccc3n2)cc1 (stereo not shown)")
5

---

# System: KHOSR2 cells
# Assay Summary: Reversal of drug resistance, cytotoxicity assay in KHOSR2
# Assay type: cell-based, human
# Experimental Parameters: Homo sapiens, PM00104, add NSC23925 0.1 μM; read-out: KHOSR2 IC50 of PM00104
pIC50: −log10 of the molar value.
Attribute Measured: pIC50

>>> result_number("COc1ccc(-c2cc(C(O)C3CCCCN3)c3ccccc3n2)cc1 (stereo not shown)")
6.95

---

# Tested on: OVCAR8TR cells
# Assay Summary: Reversal of drug resistance, cytotoxicity (MTT) assay in OVCAR8TR
# Format: cell-based, human
# Experimental Parameters: Homo sapiens, Doxorubicin, add NSC23925 0.1 μM; read-out: OVCAR8TR IC50 of Doxorubicin
Attribute Measured: IC50 (µM)

>>> result_number("COc1ccc(-c2cc(C(O)C3CCCCN3)c3ccccc3n2)cc1 (stereo not shown)")
12.3

---

# Tested on: KHOSR2 cells
# Assay Summary: Reversal of drug resistance, cytotoxicity assay in KHOSR2
# Type: cell-based, human
# Experimental Parameters: Homo sapiens, Paclitaxel, add NSC23925 0.5 μM; read-out: KHOSR2 IC50 of Paclitaxel
pIC50: −log10 of the molar value.
Attribute Measured: pIC50

>>> result_number("COc1ccc(-c2cc(C(O)C3CCCCN3)c3ccccc3n2)cc1 (stereo not shown)")
6.92

---

# Test system: OVCAR8TR cells
# Assay Summary: Reversal of drug resistance, cytotoxicity (MTT) assay in OVCAR8TR
# Format: cell-based, human
# Experimental Parameters: Homo sapiens, Paclitaxel, add NSC23925 0.1 μM; read-out: OVCAR8TR IC50 of Paclitaxel
# Method: FIGS. 1 (a-b) are graphs that depict the effects of NSC23925 on drug sensitivity in ovarian cancer cells; 1(a) depicts the effects of NSC23925 on sensitive (SKOV-3) and resistant (SKOV-3TR) cells; 1(b) depicts the effects of NSC23925 on sensitive (OVCAR8) and resistant (OVCAR8TR) cells. […] The relative sensitivity of each line to paclitaxel was determined by MTT assay, as described below in the Examples section, 6 days post treatment. […] Drug cytotoxicity was assessed in vitro using the MTT assay. […]
Attribute Measured: IC50 (nM)

>>> result_number("COc1ccc(-c2cc(C(O)C3CCCCN3)c3ccccc3n2)cc1 (stereo not shown)")
127

Data credit: patent US8802702B2
